- target-desc: human α1D receptor (Homo sapiens, UniProt P25100)
- Construct: expressed in transfected cells; host or cells: CHO cells (membrane preparation)
- Sequence (P25100 whole entry): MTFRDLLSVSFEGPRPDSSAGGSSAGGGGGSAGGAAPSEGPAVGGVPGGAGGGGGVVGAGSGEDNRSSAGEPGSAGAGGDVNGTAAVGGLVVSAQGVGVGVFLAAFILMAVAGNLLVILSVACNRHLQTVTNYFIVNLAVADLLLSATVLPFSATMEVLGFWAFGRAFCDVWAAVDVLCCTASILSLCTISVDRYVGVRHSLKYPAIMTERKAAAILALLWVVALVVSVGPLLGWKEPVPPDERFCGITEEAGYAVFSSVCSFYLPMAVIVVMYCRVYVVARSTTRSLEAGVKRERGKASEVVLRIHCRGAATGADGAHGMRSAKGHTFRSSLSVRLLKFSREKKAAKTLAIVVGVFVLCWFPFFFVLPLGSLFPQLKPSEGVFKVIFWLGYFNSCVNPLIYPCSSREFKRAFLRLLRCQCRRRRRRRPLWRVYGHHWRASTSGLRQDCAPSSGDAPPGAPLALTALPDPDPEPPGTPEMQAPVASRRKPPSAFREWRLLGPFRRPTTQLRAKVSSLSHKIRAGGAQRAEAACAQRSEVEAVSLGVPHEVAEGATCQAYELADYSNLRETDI
- measurement-protocol: Adrenaline α1D receptor binding assay ([3H]-prazosin)
- condition-info: 100 nM test drug; [3H]-prazosin 0.6 nM; human α1D receptor-expressing CHO cell membrane; read-out: BINDING INHIBITION RATE (%) α1D 100 nM
Entries and their measured inhibition at 0.1 µM follow.
Give just the numeric value; % need not be written.

-- ask Check the records and state inhibition at 0.1 µM for `C[C@H]1CC[C@@H](CCN2CCC(C(=O)c3ccc(F)cc3)CC2)N1C(=O)c1cc2ccc(SC(F)(F)F)cc2[nH]1`
-- reply 61

-- ask Check the records and state inhibition at 0.1 µM for `O=C(c1ccc(F)cc1)C1CCN(CC[C@@H]2CCCN2C(=O)c2cc3ccc(OC(F)(F)F)cc3[nH]2)CC1`
-- reply 53

-- ask Check the records and state inhibition at 0.1 µM for `COc1cc2cc(C(=O)N3CCC[C@H]3CCN3CCC(C(=O)c4ccc(F)cc4)CC3)[nH]c2cn1`
-- reply 43

-- ask Check the records and state inhibition at 0.1 µM for `COc1ccc2cc(C(=O)N3CCCC[C@H]3CCN3CCC(c4c[nH]c5ccccc45)CC3)[nH]c2c1`
-- reply 54

-- ask Check the records and state inhibition at 0.1 µM for `Cc1ccc2cc(C(=O)N3CCC[C@H]3CCN3CCC(N4CCc5cc(F)ccc54)CC3)[nH]c2c1`
-- reply 74

-- ask Check the records and state inhibition at 0.1 µM for `COc1ccc2cc(C(=O)N3CCOC[C@H]3CCN3CCC(c4noc5cc(F)ccc45)CC3)[nH]c2c1`
-- reply 74
